- measurementTarget: T1, human CD33 extracellular domain (human, UniProt P20138 18-259)
- T1 construct: soluble monomeric ECD; also called human CD33 ECD; hCD33
- assaySummary: BLI Octet, IgG loaded;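 note: IgGs captured on AHC biosensors, exposed to 100 nM antigen for 3 min association then 3 min dissociation in buffer, kinetics fitted with a 1:1 binding model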
koff by entry:
reportedProperty: koff (s⁻¹)

- binder: "ADI-10164 IgG (antibody, V domains shown, IgG; also called Ab18) VH: QVQLQESGPGLVKPSETLSLTCAVSGYSISSGYYWGWIRQPPGKGLEWIGSIYHSGSTNYNPSLKSRVTISVDTSKNQFSLKLSSVTAADTAVYYCARLPPWFGFSYFDLWGRGTLVTVSS VL: EIVLTQSPATLSLSPGERATLSCRASQSVSSYLAWYQQKPGQAPRLLIYDASNRATGIPARFSGSGSGTDFTLTISSLEPEDFAVYYCQQVDNYPPTFGGGTKVEIK"
  numericResult: 0.00148
- binder: "ADI-11819 IgG (antibody, V domains shown, IgG; also called Ab8) VH: EVQLVESGGGLVKPGGSLRLSCAASGFTFSSYAMSWVRQAPGKGLEWVSSISSSSEGIYYADSVKGRFTISRDNAKNSLYLQMNSLRAEDTAVYYCAREGGPYYDSSGYFVYYGMDVWGQGTTVTVSS VL: DIQMTQSPSTLSASVGDRVTITCRASNSISSWLAWYQQKPGKAPKLLIYEASSTKSGVPSRFSGSGSGTEFTLTISSLQPDDFATYYCQQYDDLPTFGGGTKVEIK"
  numericResult: 0.0002
- binder: "ADI-10157 IgG (antibody, V domains shown, IgG; also called Ab13) VH: QVQLQESGPGLVKPSETLSLTCTVSGGSISSYYWSWIRQPPGKGLEWIGSIYYSGSTNYNPSLKSRVTISVDTSKNQFSLKLSSVTAADTAVYYCARVGGVYSTIETYGMDVWGQGTTVTVSS VL: EIVMTQSPATLSVSPGERATLSCRASQSVSSNLAWYQQKPGQAPRLLIYGASTRATGIPARFSGSGSGTEFTLTISSLQSEDFAVYYCQQYTVYPPTFGGGTKVEIK"
  numericResult: 0.000336

Data provenance: patent US20220380459A1
